Listed compounds paired with reported GI50
System: PC-3 prostate
Assay: NCI tumour cell line growth inhibition, 48 h

Compound | GI50
CCCCC[C@H]1C/C=C2/C(=O)C(Cl)=C[C@@H]2C/C=C\CCCC(=O)O1 | 0.473 µM
CCOP(=O)(OCC)C(NC(c1ccccc1)c1ccccc1)c1ccc(C(C)C)cc1 (stereo unspecified) | 2.9 µM
Cn1cc(-c2nc(-c3cn(C)c4ncccc34)cs2)c2ccccc21 | 1.92 µM
NCCCNc1nc2ccccc2c2c(=O)c3cc(F)cc(Cl)c3sc12 | 1.76 µM
CCCCNCCCCCNc1cc(OC)cc2cccnc12 | 15.2 µM
Cc1nn(-c2ccccc2)c2nc(C)n(-c3ccc(Br)cc3)c(=O)c12 | 0.475 µM
Cc1ccc(/C(=C/C=C(C#N)C#N)Sc2nc3ccccc3s2)cc1 | 2.25 µM
COc1ccc(-c2nnc(Nc3nc(O)c(C4=c5cc(Br)ccc5=NC4=O)s3)o2)cc1 | 18.1 µM
C=CCN1C(=O)[C@]2(SC1=S)[C@H](c1cccc(Cl)c1)CN(C)[C@]21C(=O)NC2C=CC(Cl)=C[C@H]21 (stereo partly specified) | 2.19 µM
OCC1OC(n2cnc3c(NCc4ccco4)ncnc32)C(O)C1O (stereo unspecified) | 1.33 µM
Nc1cc(N)c2nc(-c3ccccc3)c(NCc3ccc(Cl)c(Cl)c3)nc2c1 | 1.75 µM

# credit: PubChem BioAssay (NCI)
